Catalogue of log10 MNTD values
System: Vero
testMethodNotes: Cytotoxicity against Chlorocebus aethiops (African green monkey) Vero cells assessed as change in morphological changes after 4 days by inverted microscopic analysis
Type: cell-based
conditionParameters: chlorocebus sabaeus, 96 h
Friendly reminder: values = log10 of MNTD, unit µg.

{"smilesEntry": "Cc1cc(C(=O)/C=C/c2c[nH]c3ccccc23)c(C)o1", "readoutLabel": "log10 MNTD", "quantitativeReadout": 1.88}
{"smilesEntry": "Cc1cc(C(=O)/C=C/c2ccc[nH]2)c(C)o1", "readoutLabel": "log10 MNTD", "quantitativeReadout": 1.40}
{"smilesEntry": "Cc1cc(C(=O)/C=C/c2ccc(-c3ccccc3)cc2)c(C)o1", "readoutLabel": "log10 MNTD", "quantitativeReadout": 0.67}
{"smilesEntry": "COc1ccc(/C=C/C(=O)c2cc(C)oc2C)cc1", "readoutLabel": "log10 MNTD", "quantitativeReadout": 0.11}
{"smilesEntry": "O=C(/C=C/c1c[nH]c2ccccc12)c1ccsc1", "readoutLabel": "log10 MNTD", "quantitativeReadout": 0.11}
{"smilesEntry": "CCc1ccc(/C=C/C(=O)c2ccsc2)o1", "readoutLabel": "log10 MNTD", "quantitativeReadout": 1.77}
{"smilesEntry": "COc1ccc(/C=C/C(=O)c2ccsc2)cc1", "readoutLabel": "log10 MNTD", "quantitativeReadout": 0.80}
{"smilesEntry": "O=C(/C=C/c1ccc[nH]1)c1ccsc1", "readoutLabel": "log10 MNTD", "quantitativeReadout": 0.67}

Prompt line: Reported log10 MNTD, compound O=C(/C=C/c1ccc(-c2ccccc2)cc1)c1ccsc1 : ____
Response line: 0.89

Prompt line: Cool, now CCc1ccc(/C=C/C(=O)c2cc(C)oc2C)o1
Response line: 0.32
